# experimental details: Efflux ratio of apparent permeability from basolateral side to apical side over apical side to basolateral side in human Caco-2 cells
# Assay type: ADME, cell-based
property name: efflux ratio
// print number alone

Q: Recorded efflux ratio of `COc1ccc2cc(C(=O)OCCN3CCOCC3)oc2c1` , please.
A: 1.65

----------
# target of assay: hERG (KCNH2) (Homo sapiens, UniProt Q12809)
# Sequence (Q12809 whole entry): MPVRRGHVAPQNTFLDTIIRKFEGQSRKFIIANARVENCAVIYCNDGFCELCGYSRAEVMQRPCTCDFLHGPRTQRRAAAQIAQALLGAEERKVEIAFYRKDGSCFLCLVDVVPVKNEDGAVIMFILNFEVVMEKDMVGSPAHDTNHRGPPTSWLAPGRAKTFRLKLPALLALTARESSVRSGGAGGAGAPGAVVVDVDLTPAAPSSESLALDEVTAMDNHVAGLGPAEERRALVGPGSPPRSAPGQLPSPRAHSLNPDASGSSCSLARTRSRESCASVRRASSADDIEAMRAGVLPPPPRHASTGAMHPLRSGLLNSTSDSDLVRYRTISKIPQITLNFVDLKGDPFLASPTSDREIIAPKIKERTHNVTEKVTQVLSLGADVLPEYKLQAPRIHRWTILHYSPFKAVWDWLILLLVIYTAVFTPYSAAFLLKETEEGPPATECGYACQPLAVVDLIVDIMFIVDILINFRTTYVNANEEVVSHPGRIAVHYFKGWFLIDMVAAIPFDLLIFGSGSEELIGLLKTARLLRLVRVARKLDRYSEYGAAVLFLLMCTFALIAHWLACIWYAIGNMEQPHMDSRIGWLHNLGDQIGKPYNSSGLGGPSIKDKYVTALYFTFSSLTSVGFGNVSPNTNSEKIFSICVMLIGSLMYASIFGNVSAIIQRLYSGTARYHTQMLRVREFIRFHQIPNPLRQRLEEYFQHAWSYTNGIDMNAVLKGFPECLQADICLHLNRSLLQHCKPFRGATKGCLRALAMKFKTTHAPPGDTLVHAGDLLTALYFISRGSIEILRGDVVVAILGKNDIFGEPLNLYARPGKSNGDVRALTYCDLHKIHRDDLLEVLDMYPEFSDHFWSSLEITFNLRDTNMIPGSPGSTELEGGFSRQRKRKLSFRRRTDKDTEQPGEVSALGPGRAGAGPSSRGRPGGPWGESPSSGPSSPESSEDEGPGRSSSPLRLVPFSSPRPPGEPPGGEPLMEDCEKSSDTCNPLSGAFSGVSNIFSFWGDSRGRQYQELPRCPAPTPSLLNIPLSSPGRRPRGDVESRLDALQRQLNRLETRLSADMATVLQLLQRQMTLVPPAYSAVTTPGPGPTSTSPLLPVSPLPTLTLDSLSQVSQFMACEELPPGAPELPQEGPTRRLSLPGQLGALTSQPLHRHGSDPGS
# experimental details: Inhibition of human ERG stably expressed in CHO cells at 1 uM by whole-cell patch clamp method relative to control
# Type: toxicity, cell-based
# conditions: CHO cells stably expressing human ERG
property name: inhibition at 1 µM
Kindly format the answer as number then unit.

Q: So what does the record say about inhibition at 1 µM for `COc1ccc2cc(C(=O)OCCN3CCOCC3)oc2c1` ?
A: 6.15%
